# credit: patent US9409952B2

test: PAMPA (parallel artificial membrane permeability assay); format: in vitro ADME; settings: PAMPA; membrane permeation rate (Pe); 50 mM MOPSO buffer pH 6.5 with 5.0% glycocholic acid, 37° C., 18 hours; read-out: iPAMPA Pe
Starred links: 1 amine or outer side, 2 acyl side, 3 side chain; linkers in the order of their positions; H or OH if unused. Positions of bridges follow the written chain, without caps; N, C: chain ends. Non-standard residues stand in square brackets, D forms with d. Residues, ends and D or L forms follow the SMILES beside them. *: point of attachment. Phe(3-(CH2)4CO) = O=C([C@H](Cc1cccc(CCCCC(=O)[*:3])c1)N[*:1])[*:2]; Arg(Me2s) = CN=C(NC)NCCC[C@H](N)C(=O)O; NMeF = CN[C@@H](Cc1ccccc1)C(=O)O; NMeI = CC[C@H](C)[C@H](NC)C(=O)O; NMeL = CN[C@@H](CC(C)C)C(=O)O; NMeV = CN[C@H](C(=O)O)C(C)C; NMeA = CN[C@@H](C)C(=O)O; Piperidide = C1CCN(*)CC1; dNMeA = CN[C@H](C)C(=O)O; Sar = CNCC(=O)O
Quick list: Papp at 18 hours, 50 µM per entry.
Express the result in ×10⁻⁶ cm/s but write the number alone.

Completed entries (count: 4):
>  <compound>
CC(C)C[C@H]1C(=O)N[C@@H](C)C(=O)N(C)[C@@H](Cc2ccccc2)C(=O)N(C)[C@@H](C(C)C)C(=O)N[C@@H](C)C(=O)N(C)[C@@H](C)C(=O)N[C@H](C(=O)N(C)[C@@H](Cc2ccccc2)C(=O)N[C@@H](C)C(=O)N2CCCCC2)CC(=O)N(C)[C@@H](C)C(=O)N(C)[C@@H](Cc2ccccc2)C(=O)N[C@@H]([C@@H](C)O)C(=O)N(C)[C@@H](C)C(=O)N1C [DP-367] ([NMeA][NMeF]T[NMeA][NMeL]A[NMeF][NMeV]A[NMeA]D[NMeF]A-Piperidide; lactam N-11)

>  <display_unit>
×10⁻⁶ cm/s

>  <Papp at 18 hours, 50 µM>
12

$$$$
>  <compound>
CC[C@H](C)[C@@H]1NC(=O)[C@@H](C)N(C)C(=O)C[C@@H](C(=O)N2CCCCC2)NC(=O)[C@H](Cc2ccccc2)NC(=O)[C@H]([C@@H](C)O)NC(=O)[C@H](CC(C)C)NC(=O)[C@H](CC(C)C)NC(=O)CN(C)C(=O)[C@H](CC(C)C)NC(=O)[C@H](C)NC(=O)[C@H](CC(C)C)NC1=O [DP-327] ([dNMeA]ILAL[Sar]LLTFD-Piperidide; lactam N-11)

>  <display_unit>
×10⁻⁶ cm/s

>  <Papp at 18 hours, 50 µM>
3.5

$$$$
>  <compound>
CC[C@H](C)[C@H]1C(=O)N[C@H](C(=O)N2CCCCC2)Cc2cccc(c2)CCCCC(=O)N[C@@H](CC(C)C)C(=O)N2CCC[C@H]2C(=O)N(C)[C@@H](C(C)C)C(=O)N[C@@H](Cc2ccccc2)C(=O)N(C)[C@@H](Cc2ccccc2)C(=O)N(C)[C@@H](CC(C)C)C(=O)N[C@@H](C)C(=O)N1C [DP-872] (LP[NMeV]F[NMeF][NMeL]A[NMeI][Phe(3-(CH2)4CO)]-Piperidide; lactam N-9)

>  <display_unit>
×10⁻⁶ cm/s

>  <Papp at 18 hours, 50 µM>
3.1

$$$$
>  <compound>
C/N=C(\NC)NCCC[C@@H]1NC(=O)[C@H](CC(C)C)N(C)C(=O)[C@H](Cc2ccccc2)N(C)C(=O)[C@H](C)N(C)C(=O)[C@@H](C(C)C)NC(=O)C[C@@H](C(=O)N(C)[C@@H](Cc2ccccc2)C(=O)N[C@@H](C)C(=O)N2CCCCC2)NC(=O)[C@H](CC(C)C)N(C)C(=O)[C@H](CC(C)C)N(C)C(=O)[C@H](C(C)C)NC(=O)CN(C)C1=O [DP-590] ([dV][NMeA][NMeF][NMeL][Arg(Me2s)][Sar]V[NMeL][NMeL]D[NMeF]A-Piperidide; lactam N-10)

>  <display_unit>
×10⁻⁶ cm/s

>  <Papp at 18 hours, 50 µM>
1.4

$$$$

# next compound below
I would be grateful if you could share the reported Papp at 18 hours, 50 µM for CC[C@H](C)[C@@H]1NC(=O)[C@H](CC(C)C)N(C)C(=O)[C@H](C)N(C)C(=O)[C@@H](C)NC(=O)C[C@@H](C(=O)N2CCCCC2)NC(=O)[C@H](CC(C)C)N(C)C(=O)[C@H](C)N(C)C(=O)[C@H]([C@@H](C)O)NC(=O)[C@H](Cc2ccccc2)N(C)C(=O)[C@H](Cc2ccccc2)N(C)C1=O [DP-136] ([dA][NMeA][NMeL]I[NMeF][NMeF]T[NMeA][NMeL]D-Piperidide; lactam N-10) .
35
